Please respond with reported growth inhibition for every item in the list.
- EXPERIMENT_NOTES: NCI Yeast Anticancer Drug Screen. Data for the cln2 rad14 strain (AID 165);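 also: 0% = growth equal to vehicle treated cultures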
- MEASUREMENT_CONTEXT: S. cerevisiae cln2 rad14 strain, at 5.0 µM (retest, dose inferred, filed as 0.5), active compounds read high
The panel holds about 79,000 compounds, 15% with a hit somewhere; the sample as a whole holds those more often.
Write it as a number; the unit % goes unstated.

growth inhibition lookup needed for `O=[N+]([O-])c1cc(S(=O)(=O)Nc2ccccc2)ccc1Cl` , thanks. 33

CCCCCCCCCCCCCC(=O)OC(C)CCC1CCCO1 (centres undefined) , same question. 81

Same question for `Cc1ccc2c(ccc(/C=C/c3ccc(O)c4ncccc34)[n+]2C)c1` please. 17

Would you kindly repeat that for CC1=CC2C(C(C)C)CC1C1C(=O)OC(=O)C21 (centres undefined) ? -53

Another: `ClCCn1c(CCl)nc2ccc(Cl)cc21` 7

And for `O=c1[nH]c2ccccc2c2nc3ccccc3n12` ? 33

Now this one: `O=C1C=CC(=O)N1c1ccc(I)cc1` 56

Cool, now `CN[C@@H]1C[C@H]2O[C@@](C)([C@@H]1OC)n1c3ccccc3c3c4c(c5c6ccccc6n2c5c31)C(=O)N[C@@H]4O` 13

Try this molecule too: `CCCCCCCCN1C(=O)c2ccccc2C1=O` -15

`CCOC(=O)[C@]1(Br)CC[C@@]1(Br)C(=O)OCC` ? -7

Also check `Cc1cc(C(C)(C)CC(C)(C)C)cc(O)c1O` 37

Request: `C=C1N(C)c2ccc(Cl)cc2C1(C)C` 64

Moving on to the next molecule: `O=c1[nH]cc(/C=N\Nc2ccccc2)c(=O)[nH]1` -29

`COc1ccc2c(c1)[nH]c1c(/C=C/c3ccccc3)nccc12` ? 40

Then this molecule: `COc1cc(CNc2ccc(C(C)C)cc2)cc(OC)c1OC` 6

What about this molecule? `CC[C@@]1(OC(=O)CCC(=O)O)C(=O)OCc2c1cc1n(c2=O)Cc2cc3ccccc3nc2-1` 5

# repeat for `COc1cc(/C=C/c2sc3ccccc3[n+]2C)ccc1N(C)C` -2

Here is the next molecule: `CCCCC1=NNC(=O)C1` 28

And for `COc1ccc(N=Nc2ccc3oc(=O)c(C(=O)Nc4ccccc4)cc3c2)cc1` ? -19

Try this molecule next: `CC(=O)CC(=O)/C=C/c1cccs1` 15

# iterate: `C/C=C/[P+](c1ccccc1)(c1ccccc1)c1ccccc1` 9

Okay, and `COc1ccc2oc(-c3ccc(Cl)cc3)c(N3CCN(C)CC3)c2c1` ? 17

Query `O=C(/C=C/c1cccc(Br)c1)c1ccc(Cl)cc1` next 46

Also need `Cc1ccc(S(=O)(=O)N(C)c2ccc(Cl)cc2C2=NCCc3ccccc32)cc1` , thanks. 51

====

- EXPERIMENT_NOTES: NCI Yeast Anticancer Drug Screen. Data for the mlh1 strain (AID 171);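 also: 0% = growth of vehicle-treated control cultures of the same strain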
- MEASUREMENT_CONTEXT: S. cerevisiae mlh1 strain growth inhibition; at 100.0 µM
Compounds without any hit were thinned out: in the full panel of roughly 79,000, 15% have a hit. Active and inactive are the calls of the source. Rule as the data show it: active = growth inhibition above about 70%; inactive = the rest.
Just give me one of these, please: class 1 for active, class 0 for inactive

What did the test return for `Clc1nc(C(Cl)Cl)nc2sc3c(c12)CCCC3` ? class 0

# iterate: `CN(C)c1ccc(/C=C/c2ccnc3ccccc23)cc1N` class 0

Try the compound `COC(=O)c1cccc(C)c1C(=O)c1c(C)cc(C)cc1C` class 0

Now the compound `O=c1[nH]cc(/C=N\Nc2ccccc2)c(=O)[nH]1` class 0

Again, but for `CC(C)(C)c1ccc(O)c(C(c2ccc([N+](=O)[O-])cc2)c2cc(C(C)(C)C)ccc2O)c1` class 1

Also, `c1ccc2c(c1)ccc1c3ccncc3ccc21` please. class 1

How about this compound: `Cc1cc(Cl)ccc1NC(=O)/C(Cl)=C1/Sc2ccccc2NC1=O` class 0

Next up: `Cc1ccc(S(=O)(=O)N/N=C/C2(c3ccccc3)c3ccccc3-c3ccccc32)cc1` class 1

For CCC(c1ccc(O)cc1)C(CC)c1ccc(OCCN)cc1 (stereo not drawn) then? class 1

Input `On1cnc(=S)c2[nH]cnc21` class 0

Then what about the compound CCN(CC)CC(O)C1CCC(c2ccccc2)CC1 (stereo not drawn) ? class 1

What do you have for `COc1ccc2oc(-c3ccc(Cl)cc3)c(N3CCN(C)CC3)c2c1` ? class 1

Now give it for `CC(C)(C)[OH+][O-].[O-]c1ccc(Cl)cc1C=Nc1ccc(Cl)cc1[O-].[O]=[V]` too. class 0

Now this one: CCC(NC(C)c1ccccc1)C(=O)c1ccc(OCc2ccccc2)c(OCc2ccccc2)c1 (stereo not drawn) class 0

Next compound: `O=[N+]([O-])c1cccc2nc3ccccc3c(NCCc3cccc[n+]3[O-])c12` class 1

Repeat with `CCC(C)(c1ccc(O)c(C)c1)c1ccc(O)c(C)c1` class 1

What do we get for `C=C(CCCO)[C@@H]1CC[C@@](C)(O)[C@H]1C` ? class 0

Follow-up entry: `CCCCCCCCCCCCCCCCNC(=O)/C(=C\c1ccc(Cl)c(Cl)c1)NC(=O)c1ccccc1` class 0

Record: `O=C(O)c1ccccc1.[Ag]` class 1

Record: `Cc1ccc(Nc2c3c(c(C#N)c4nc5ccccc5n24)CCCC3)cc1` class 1

What do you get for CC(=O)C1=C(O)C2(C)c3c(O)c(C)c(O)c(C(C)=O)c3OC2(Sc2ccccc2)CC1=O (stereo not drawn) ? class 1

Try the compound O=C1C(Cl)=C(Cl)C(Cl)(Cl)C(Cl)C1(Cl)Cl (stereo not drawn) class 1

Subsequent entry: `CCc1[nH]nc(C(N)=O)c1N=NN(C)C` class 0

====

- EXPERIMENT_NOTES: NCI Yeast Anticancer Drug Screen. Data for the rad50 strain (AID 155);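 also: 0% = growth of vehicle-only cultures of the same strain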
- MEASUREMENT_CONTEXT: S. cerevisiae rad50 strain growth inhibition; at 50.0 µM
The panel holds about 79,000 compounds, 15% with a hit somewhere; the sample as a whole holds those more often. Active and inactive are the calls of the source. No stated cut-off is given here; in the data, active means growth inhibition above about 70%; inactive means the rest.
Permitted responses: label 1 (active), label 0 (inactive)

Could you check what this test reported for CCC(c1ccc(O)cc1)C(CC)c1ccc(OCCN)cc1 (stereo unspecified) ? label 0

Then this compound: `CCC(C)(c1ccc(O)c(C)c1)c1ccc(O)c(C)c1` label 1

Also Cc1cc(O)c2c(c1O)C(=O)C13C(=C2O)C(=O)C2C(O)C1C1C(O)C3C(=O)C3=C(O)c4c(O)cc(C)c(O)c4C(=O)C321 (stereo unspecified) ? label 1

Please answer likewise for CCN(CC)CC(O)C1CCC(c2ccccc2)CC1 (stereo unspecified) label 1

Can you handle `CSc1s[s+]c(SC)c1-c1ccccc1` next? label 1

Similarly, `CCOC(=O)[C@]1(Br)CC[C@@]1(Br)C(=O)OCC` ? label 1

Moving on to `COc1ccc(N)c2c1C(=O)c1ccccc1C2=O` label 0

Consider next the compound `CC(=O)N1C(=O)/C(=C\C(=O)c2ccc([N+](=O)[O-])cc2)c2ccccc21` in the same way. label 1

# iterate: CCC(=O)N(c1ccccc1)C(C)CN1CCC(O)(c2cccc(C(F)(F)F)c2)CC1 (stereo unspecified) label 0

How about `CCc1nc(N)nc(N)c1-c1ccc(NCCCCCCN)c([N+](=O)[O-])c1` ? label 1

Next compound: `NC(N)=N/N=C/c1cc(Cl)cc(Cl)c1O` label 1

And `S=P(N1CC1)(N1CC1)N1CC1` ? label 0

Then `O=C1c2ccccc2C(=O)c2cc(S(=O)(=O)Nc3ccccc3)ccc21` ? label 1

Query `COC(=O)/C=C1/OC(c2ccc(Br)cc2)=C(Br)C1=O` next label 0

Consider next the compound `CCCCCCCCCCCc1nc(N)n[nH]1` in the same way. label 1

One more compound: `COc1cc(NCc2ccc3nc(N)nc(N)c3c2C)cc(OC)c1OC` label 0

Also `Cc1cc(Cl)ccc1NC(=O)/C(Cl)=C1/Sc2ccccc2NC1=O` ? label 1

Repeat for the following compound: `COc1ccc(S(=O)(=O)N/N=C\c2cc([N+](=O)[O-])cc(I)c2O)c(OC)c1OC` label 1

// repeat for `COc1cc(/C=C/c2sc3ccccc3[n+]2C)ccc1N(C)C` and report label 0

// same read-out, input: `COc1cc(CNc2ccc(C(C)C)cc2)cc(OC)c1OC` label 0

And the next one, `CCOC(=O)C1=C(C)NC(C)=C(C(=O)OCC)C1c1ccccc1Cl` ? label 1

Entry to check: CCOC(=O)C(NC(=O)CC)(N1CCN(c2cc3c(cc2F)c(=O)c(C(=O)O)cn3C2CC2)CC1)C(F)(F)F (stereo unspecified) label 1

What about O=C1NC(c2c(Cl)cccc2Cl)Nc2ccccc21 (stereo unspecified) ? label 1

Cool, now `CNc1ccc(Cc2c[nH]c3ccccc23)cc1` label 1

Next: `CCN(CC)N=Nc1c(C(N)=O)n[nH]c1C` label 1

Lookup `Oc1ccccc1N=Cc1ccc(Cl)cc1` label 0

Now the compound `C=Cc1cnc([N+](=O)[O-])n1C` label 1

Next compound up: `BrCc1ccccc1C(c1ccccc1)c1ccccc1` label 1

Proceed to CC1(C)C(C=O)=CCC1CC(N)=O (stereo unspecified) label 1

// query: `COc1cc(N)ccc1Nc1c2ccccc2nc2ccccc12` label 0

Next up: `CN[C@@H]1C[C@H]2O[C@@](C)([C@@H]1OC)n1c3ccccc3c3c4c(c5c6ccccc6n2c5c31)C(=O)N[C@@H]4O` label 0

What do we get for `COc1cc2c(cc1C[N+](C)(C)CSc1ccccc1)-c1ccccc1CC2` ? label 1

Continue with `c1ccc2c(c1)Cn1c-2nc2ccccc21` label 1

// query: CC1OC(OC2CCCc3c(O)c4c(c(O)c32)C(=O)c2ccccc2C4=O)CC(N)C1O (stereo unspecified) label 1

Please do the same for `CCC(=O)Oc1ccc(/C=N/NC(N)=S)nc1` as well. label 0

Param item: `CCOC(=O)C1=C(C)NC(C)=C(C(=O)OCC)C1c1ccc(C)cc1` label 1
